TESTED_SYSTEM: KRAS G12V Ba/F3 (Homo sapiens, UniProt P01116, G12V, cells depend on it)
Sequence (P01116 whole entry G12V): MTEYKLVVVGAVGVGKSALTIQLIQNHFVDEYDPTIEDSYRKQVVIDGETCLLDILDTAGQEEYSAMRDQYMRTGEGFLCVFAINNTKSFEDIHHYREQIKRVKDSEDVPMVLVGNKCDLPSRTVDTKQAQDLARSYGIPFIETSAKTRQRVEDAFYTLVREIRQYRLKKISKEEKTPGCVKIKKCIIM
PROCEDURE_DETAILS: Ba/F3 proliferation assay, KRAS G12V
Assay type: cell-based
CONDITIONS_USED: 72 h, AlamarBlue, read-out: KRAS G12V Ba/F3 IC50
READOUT_LABEL: GI50 (nM)
Give the quantity in nM, number only.

C[C@H](Oc1cc(O[C@@H]2CNC2(C)C)nc(-c2noc3c2CCC[C@@]32CCCc3sc(N)c(C#N)c32)n1)[C@@H]1C[C@@H](F)CN1C; 230
C[C@H](Oc1cc(OCCO)nc(-c2noc3c2CCC[C@@]32CCCc3sc(N)c(C#N)c32)n1)[C@@H]1CCCN1C; 7
C[C@H](Oc1cc(O[C@@H]2CNC2(C)C)nc(-c2noc3c2CCC[C@@]32CCCc3sc(N)c(C#N)c32)n1)[C@@H]1CCCN1C; 161
C[C@H](Oc1cc(Nc2ccccn2)nc(-c2noc3c2CCC[C@@]32CCCc3sc(N)c(C#N)c32)n1)[C@@H]1CCCN1C; 11
C[C@H](Oc1cc(NCC2COC2)nc(-c2noc3c2CCC[C@@]32CCCc3sc(N)c(C#N)c32)n1)[C@@H]1CCCN1C; 29

Now turn to the next molecule.
Please provide the recorded GI50 for `C[C@H](Oc1cc(Nc2ccncn2)nc(-c2noc3c2CCC[C@@]32CCCc3sc(N)c(C#N)c32)n1)[C@@H]1CCCN1C` , tested on KRAS G12V Ba/F3 (Homo sapiens, UniProt P01116, G12V, cells depend on it). 12

---

compounds and their reported pIC50
TESTED_SYSTEM: KRAS (G12V)::SOS1 (Homo sapiens, UniProt P01116, C118S/G12V)
Construct: KRAS (G12V) 1-169, N-terminal 6His-tag for purification, cleaved off; 6His-tag (N, cleaved yes); TEV cleavage site; made in house
Sequence (P01116 1-169 isoform P01116-2 G12V/C118S): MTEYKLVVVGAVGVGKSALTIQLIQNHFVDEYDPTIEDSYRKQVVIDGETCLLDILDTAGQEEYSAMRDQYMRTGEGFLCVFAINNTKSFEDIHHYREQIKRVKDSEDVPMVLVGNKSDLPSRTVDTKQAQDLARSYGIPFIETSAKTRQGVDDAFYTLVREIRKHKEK
PROCEDURE_DETAILS: KRAS::SOS1 AlphaScreen binding assay, KRAS G12V
pIC50 field: float, defined as -log10 of concentration (mol/L).

These recorded examples may help you get a feel for the data.
C[C@H](Oc1cc(O[C@@H]2CNC2(C)C)nc(-c2noc3c2CCC[C@@]32CCCc3sc(N)c(C#N)c32)n1)[C@@H]1CCCN1C; 8.52
C[C@H](Oc1cc(OCC2(N(C)C)COC2)nc(-c2onc3c2CCC[C@@]32CCCc3sc(N)c(C#N)c32)n1)[C@@H]1CCCN1C; 8.52
C[C@H](Oc1cc(Oc2cccnc2)nc(-c2onc3c2CCC[C@@]32CCCc3sc(N)c(C#N)c32)n1)[C@@H]1CCCN1C; 9.00
COc1c(OCC2(N(C)C)COC2)nc(-c2noc3c2CCC[C@@]32CCCc3sc(N)c(C#N)c32)nc1O[C@@H](C)[C@@H]1CCCN1C; 8.70
C[C@H](Oc1cc(O[C@@H]2CNC[C@@H]2F)nc(-c2noc3c2CCC[C@@]32CCCc3sc(N)c(C#N)c32)n1)[C@@H]1CCCN1C; 8.70
C[C@H](Oc1cc(Nc2ncco2)nc(-c2noc3c2CCC[C@@]32CCCc3sc(N)c(C#N)c32)n1)[C@@H]1CCCN1C; 8.70
C[C@H](Oc1cc(Nc2cnccn2)nc(-c2noc3c2CCC[C@@]32CCCc3sc(N)c(C#N)c32)n1)[C@@H]1CCCN1C; 8.52
C[C@H](Oc1cc(Oc2nccs2)nc(-c2onc3c2CCC[C@@]32CCCc3sc(N)c(C#N)c32)n1)[C@@H]1CCCN1C; 8.70
CO[C@@H]1C[C@@H]([C@H](C)Oc2cc(O[C@@H]3CNC3(C)C)nc(-c3noc4c3CCC[C@@]43CCCc4sc(N)c(C#N)c43)n2)N(C)C1; 8.70

Now turn to the next compound.
Please look up its pIC50: `C[C@H](Oc1cc(Nc2ncccn2)nc(-c2noc3c2CCC[C@@]32CCCc3sc(N)c(C#N)c32)n1)[C@@H]1CCCN1C` 8.70
